Entries and their measured human B cell proliferation, no crosslinking, EC50 follow.
# SYSTEM NAME: human CD40 on cells (human, UniProt P25942 21-277)
# Sequence (P25942 21-277 limits assumed): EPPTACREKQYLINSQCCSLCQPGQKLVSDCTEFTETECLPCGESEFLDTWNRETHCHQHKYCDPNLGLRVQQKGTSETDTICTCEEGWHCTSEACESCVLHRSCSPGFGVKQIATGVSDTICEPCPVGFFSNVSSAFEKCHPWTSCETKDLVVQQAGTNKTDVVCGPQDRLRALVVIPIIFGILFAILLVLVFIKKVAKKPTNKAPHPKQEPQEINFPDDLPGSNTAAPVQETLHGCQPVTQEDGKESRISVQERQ
# ASSAY: cell-based or functional assay

Sample answers from the record:
Bench note: what human B cell proliferation, no crosslinking, EC50 did 30A12 (antibody, IgG4, V domains shown, also called 4878-1) VH: EVQLLESGGGLVQPGGSLRLSCAASGFTFSRNAMSWVRQAPGKGLEWVSATGGSGISTYYADSVKGRFTISRDNSKNTLYLQMNSLRAEDTAVYYCARGYSNSWWYFDYWGQGTLVTVSS VL: QSALTQPASVSGSPGQSITISCTGTSSDVGNYNLVSWYQQHPGKAPKLMIFEVNQRPSGVSNRFSGSKSGTTASLTISGLQAADEADYFCCSYTTSSTYVIFGGGTKLTVLG show?
> 0.0167 µM

Give the measured human B cell proliferation, no crosslinking, EC50 of 29H10 (antibody, V domains shown, also called 4877-1) VH: QVQLVQSGAEVTKPGASVKVSCKASGYTFAGYYMHWVRQAPGQGLEWMGWINPHSGGTNYAQKFQDRVTMTRDTSINTAYMELSRLRSDDTAVYYCARERISMVRGVGHNWFAPWGQGTLVTVSS VL: DIQMTQSPSSLSASVGDRVTITCRASQDISNNLAWFQQKPGKPPKSLMYAASSLHSGVPSTFSGSGSGTDFTFTISSLQPEDFATYYCQQYNSYPLTFGGGTKVEIRR .
> 0.0167 µM

---
State the recorded human B cell proliferation, no crosslinking, EC50 for this entry: 33H9 (antibody, IgG4, V domains shown, also called 4897-1) VH: QVQLVESGGGVVQPGRSLRLSCAASGFTFSSHGMHWVRQPPGKGLEWVAVIWYDGSNEYYGDSVKGRFTISRDNSKNTLYLQMNSLRVEDTAVYYCTRGGGHWNYEGHYYGMDVWGQGTTVTVSS VL: QAVPTQPSSLSASPGASASLTCTLRSGINVGSSRIYWYQQKPGSPPQFLLRYTSDSDKLQGSGVPSRFSGSKDASANAGLLLISGLQSEDEADYYCMIWHSSAVVFGGGTKLTVLG
> 0.0134 µM
